Test system: Caco-2
Test: Antiproliferative activity against human Caco-2 cells
Assay type: functional, cell-based
pIC50: −log10 of the molar value.

compound	pIC50
COC1=CC(c2ccc[nH]2)=N/C1=C\NCCC(C)C [TAMBJAMINE K]	8.48
